Collected normalized growth values appear next to each entry.
Method Notes: chemical genetic growth profiling, strain panel (AID 1159580);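 further: tested at 20 µM; growth read once vehicle control cultures reached saturation at 30 °C; 1 = growth at the plate median or of vehicle wells; lower values mean less growth of the strain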
Measurement Conditions: S. cerevisiae deletion strains, growth OD, locus YBR160W, strain CDC28, active compounds read low
Out of some 5,500 compounds screened, about 2,000 (36%) were called active. Another 18% or so got no clear call; they are omitted. The list shows a part of the results.
Write no unit; give the number alone.

{"Molecule": "CSc1cccc(N2C(=O)CC(c3c(Cl)cccc3Cl)CC2=O)c1", "normalized growth": 0.989}
{"Molecule": "CCC1CCC(C)N(C(=S)Nc2ccc(Br)cc2C)C1 (stereo not drawn)", "normalized growth": 0.953}
{"Molecule": "CCc1cc2c(cc1-c1csc(C/C(N)=N\\O)n1)C(C)(C)CCC2(C)C", "normalized growth": 0.986}
{"Molecule": "COc1cc(C(=O)Oc2c(Cl)cc(Cl)cc2C=Nc2cccc([N+](=O)[O-])c2)cc(OC)c1OC", "normalized growth": 0.98}
{"Molecule": "CCOC(=O)NC(=S)NC12CC3CC(CC(C3)C1)C2", "normalized growth": 0.984}
{"Molecule": "O=C(Nc1ccc(Cl)cc1Cl)c1cnccc1C(F)(F)F", "normalized growth": 0.974}
{"Molecule": "Cc1nc(C(F)(F)F)c(C(=O)O/N=C(/N)c2ccc(Cl)cc2)s1", "normalized growth": 0.983}
{"Molecule": "O=C(CO/N=C\\c1ccc(Cl)cc1Cl)NNC(=S)Nc1cc(Cl)ccc1Cl", "normalized growth": 1}

Ask | Item under review: C/C(=N/OC(=O)Nc1ccc(Cl)cc1)c1ccc2c(c1)CCO2 . Reported normalized growth?
Reply | 0.943

Ask | Report normalized growth for O=S(=O)(Nc1cc(C(F)(F)F)ccc1F)c1cc(C(F)(F)F)ccc1Cl please.
Reply | 0.931

Ask | I would be grateful if you could share the reported normalized growth for CCCCCc1ccc(S(=O)(=O)Nc2ccc3c(c2)C(=O)OC3)cc1 .
Reply | 0.984

Ask | Could you tell me which normalized growth is on file for N/C(=N/OC(=O)c1ccc(Cl)cc1)c1ccc(F)cc1F ?
Reply | 0.903

Ask | Please report the recorded normalized growth for OC(c1ccc(C(F)(F)F)cc1)c1cccc(C(F)(F)F)c1 (stereo not drawn) .
Reply | 0.969
